Test: terephthalic acid (TPA) released, HPLC; higher = more TPA released; extreme values may be limits of the assay
Settings: PET substrate: cryPow; 60 °C; pH 4.5; 24 h
parameter: terephthalic acid
Reply with the number, then its unit.

input: Given the sequence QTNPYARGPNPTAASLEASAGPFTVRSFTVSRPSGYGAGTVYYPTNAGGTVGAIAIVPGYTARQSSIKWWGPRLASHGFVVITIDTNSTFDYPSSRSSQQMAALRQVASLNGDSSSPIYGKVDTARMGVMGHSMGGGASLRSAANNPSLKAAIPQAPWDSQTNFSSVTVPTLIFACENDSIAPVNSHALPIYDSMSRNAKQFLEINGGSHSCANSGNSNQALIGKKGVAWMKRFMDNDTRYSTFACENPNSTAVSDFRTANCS [DuraPETase] , what is its reported terephthalic acid?
output: 0 mM

----------
Assay: PET hydrolysis product formed (TPA+MHET+BHET, UV-Vis) per mg enzyme (mmol/mg enzyme); higher = more PET depolymerisation activity; extreme values may be limits of the assay
Details: PET substrate: aFilm; 60 °C; pH 5.5; 2 h
Would you mind telling me the reported PET hydrolysis product formed of each entry?
# output: bare number, no unit

input: Recorded PET hydrolysis product formed of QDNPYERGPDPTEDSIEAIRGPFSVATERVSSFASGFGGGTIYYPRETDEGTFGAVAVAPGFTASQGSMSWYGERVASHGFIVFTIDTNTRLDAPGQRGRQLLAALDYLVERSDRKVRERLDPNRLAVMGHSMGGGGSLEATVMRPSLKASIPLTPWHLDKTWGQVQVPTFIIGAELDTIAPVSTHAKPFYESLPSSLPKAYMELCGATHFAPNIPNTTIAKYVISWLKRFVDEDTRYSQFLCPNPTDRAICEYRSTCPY [Cut190*SS] , please.
output: 0

input: Also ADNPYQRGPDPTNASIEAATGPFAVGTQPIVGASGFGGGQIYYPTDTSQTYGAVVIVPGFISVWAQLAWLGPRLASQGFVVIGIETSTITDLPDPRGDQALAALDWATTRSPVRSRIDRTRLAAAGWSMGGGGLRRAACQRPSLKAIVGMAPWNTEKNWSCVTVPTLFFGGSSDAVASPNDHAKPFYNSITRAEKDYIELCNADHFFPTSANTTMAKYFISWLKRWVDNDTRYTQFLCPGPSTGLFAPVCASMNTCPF [CaPETaseM9] ?
output: 0

input: Now consider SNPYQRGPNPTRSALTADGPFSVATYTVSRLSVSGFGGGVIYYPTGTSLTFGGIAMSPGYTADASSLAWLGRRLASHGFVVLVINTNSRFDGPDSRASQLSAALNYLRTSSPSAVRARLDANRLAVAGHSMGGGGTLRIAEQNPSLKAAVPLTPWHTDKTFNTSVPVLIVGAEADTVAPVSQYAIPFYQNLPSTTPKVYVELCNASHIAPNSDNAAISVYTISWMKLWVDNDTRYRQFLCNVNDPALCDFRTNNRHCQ [LCC-A2] and answer again.
output: 0.031

input: What do you get for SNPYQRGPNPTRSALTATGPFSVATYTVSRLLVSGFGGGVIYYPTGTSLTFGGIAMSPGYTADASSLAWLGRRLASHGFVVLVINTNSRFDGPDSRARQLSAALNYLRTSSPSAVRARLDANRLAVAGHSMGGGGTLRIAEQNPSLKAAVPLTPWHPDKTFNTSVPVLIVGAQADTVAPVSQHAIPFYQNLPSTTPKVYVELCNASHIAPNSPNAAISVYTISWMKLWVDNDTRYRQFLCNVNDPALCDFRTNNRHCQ [LCC-ICCG I6M] ?
output: 0.0198

input: Next: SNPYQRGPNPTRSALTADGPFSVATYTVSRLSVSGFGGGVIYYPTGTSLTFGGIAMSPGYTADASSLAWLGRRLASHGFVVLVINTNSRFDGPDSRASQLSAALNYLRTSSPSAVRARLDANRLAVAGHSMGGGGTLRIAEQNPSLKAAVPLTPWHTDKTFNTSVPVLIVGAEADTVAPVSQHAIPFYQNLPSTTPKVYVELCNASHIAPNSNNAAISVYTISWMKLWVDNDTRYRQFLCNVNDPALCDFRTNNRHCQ [LCC-ICCG]
output: 0.0182

input: What do we get for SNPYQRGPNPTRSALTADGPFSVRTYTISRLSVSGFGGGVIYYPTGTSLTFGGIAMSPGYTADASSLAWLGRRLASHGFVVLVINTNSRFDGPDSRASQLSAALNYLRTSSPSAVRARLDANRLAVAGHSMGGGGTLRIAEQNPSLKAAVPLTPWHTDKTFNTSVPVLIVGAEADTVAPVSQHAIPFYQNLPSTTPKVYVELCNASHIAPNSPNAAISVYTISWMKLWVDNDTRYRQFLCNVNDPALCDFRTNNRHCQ [LCC-ICCG RIP] ?
output: 0.0147
